- ASSAY_PROTOCOL: modulators of HCV replicon luciferase signal, primary screen, HCV replication inhibitor project, Huh7 cells, luciferase reporter (AID 1109);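 further: huh7 hepatoma cells harbouring a luciferase neomycin HCV replicon reporter; luciferase luminescence as measure of HCV replicon replication; test concentration not given here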
- ASSAY_CONTEXT: 48 h, higher = more signal
// z-score lookup, one value per entry

Some entries whose results are on file:
>>> value("COc1ccc(COC(=O)NN=C2C[C@@H](O)[C@@H](O)[C@@H]3[C@@H]4C(=O)N([C@@H](C)c5ccccc5)C(=O)[C@@H]4CC[C@@H]23)cc1")
0.426
>>> value("CC(CCN1CCCc2nc(C)c(C)cc21)=NOC[C@@H](C)[C@H](OCc1ccccc1)C(C)C")
-0.148
>>> value("CC(CCC(=O)OC[C@H]1O[C@H](C#Cc2ccccc2)C=C[C@@H]1Oc1ccc(C)cc1)=NOC(C)CN1CCCCc2nc(C)c(C)cc21 (some centres not stated)")
-1.17
>>> value("CCOC(=O)[C@H](Cc1ccccc1)NC(=O)CCC1CC(OC(=O)NCc2cccc3ccccc23)CC2(CCCC(COC(=O)NCc3ccc4c(c3)OCO4)O2)O1 (some centres not stated)")
1.08

Dear colleague, I am looking for the recorded z-score of the following compound: CCN1C(=O)[C@H]2[C@H]3[C@H](O)[C@H](O)CC(=NNC(=O)OCc4ccccc4)[C@@H]3CC[C@H]2C1=O
0.232

Dear colleague, I am looking for the recorded z-score of the following compound: CC(CCN1CCc2nc(-c3ccccc3)c(-c3ccccc3)cc2C1)=NO[C@H](C)c1cn([C@H](CO)Cc2ccccc2)nn1
-2.3

Dear colleague, I am looking for the recorded z-score of the following compound: O=C1C[C@@H](O)[C@@H](O)[C@@H]2[C@@H]3C(=O)N(Cc4ccccc4)C(=O)[C@@H]3CC[C@H]12
-0.0156

###

- Test system: Sam68 (KHDRBS1)
- ASSAY_PROTOCOL: Sam68 small-molecule binders, primary screen, biochemical, small-molecule microarray, 635 nm fluorescence (AID 1125);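 further: score merges 667 nm channel intensity with signal to noise over triplicate slides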
- ASSAY_CONTEXT: small-molecule microarray binding, higher = more signal
ENDPOINT_LABEL: composite z-score

Some entries whose results are on file:
>>> value("COc1ccc(O[C@H]2C=C[C@@H](C#Cc3ccccc3)O[C@@H]2CO)cc1")
-0.006
>>> value("CCCNC(=O)OC[C@H]1O[C@H](CCON=C2c3cc(OC)ccc3O[C@H](c3cccc(OC)c3)[C@H]2O)C=C[C@@H]1Oc1ccc(OC)cc1")
0.956
>>> value("CCN1C(=O)[C@H]2[C@H]3[C@H](O)[C@H](O)CC(=NO[C@@H]4O[C@H](COC(C)=O)[C@@H](OC(C)=O)[C@H](OC(C)=O)[C@H]4OC(C)=O)[C@@H]3CC[C@H]2C1=O")
1.22

Dear colleague, I am looking for the recorded composite z-score of the following compound: CCCNC(=O)OC[C@H]1O[C@H](CCON=C[C@@H](C)[C@H](OCc2ccccc2)C(C)C)C=C[C@@H]1Oc1ccc(OC)cc1
-1.04

Dear colleague, I am looking for the recorded composite z-score of the following compound: CC(CCN1CCCCc2nc(C)c(C)cc21)=NOC[C@@H](O)[C@H]1O[C@@H]2OC(C)(C)O[C@@H]2[C@H]1O
0.0948

Dear colleague, I am looking for the recorded composite z-score of the following compound: O=C1C=C[C@@H](O)[C@@H]2[C@@H]3C(=O)N(C4CCCCC4)C(=O)[C@@H]3CC[C@@H]12
0.595

Dear colleague, I am looking for the recorded composite z-score of the following compound: CC(CCN1CCCc2nc(C)c(C)cc21)=NOC[C@@H](C)[C@H](OCc1ccccc1)C(C)C
-0.818

Dear colleague, I am looking for the recorded composite z-score of the following compound: C[C@H]1CC[C@H]2C(=O)OC(COc3ccc(C(C)(C)C)cc3)CN2[C@@H]1c1ccc(Br)cc1 (stereo not given in full)
0.961

Dear colleague, I am looking for the recorded composite z-score of the following compound: CCOC(=O)[C@H](Cc1ccccc1)NC(=O)CCC1CC(OC(=O)NCc2ccc3c(c2)OCO3)CC2(CCCC(COC(=O)NCCCN3CCCC3=O)O2)O1 (stereo not given in full)
1.32

Dear colleague, I am looking for the recorded composite z-score of the following compound: CCOC(=O)[C@H](CC(C)C)NC(=O)CCC1CC(OC(=O)NCc2ccc3c(c2)OCO3)CC2(CCCC(COC(=O)NCCC(C)C)O2)O1 (stereo not given in full)
-0.557

Dear colleague, I am looking for the recorded composite z-score of the following compound: O=C(NCCC[N+]1=CC=NC1c1ccccc1)N1CCCc2nc(-c3ccc(Br)cc3)ccc21 (stereo not given)
0.152

Dear colleague, I am looking for the recorded composite z-score of the following compound: CO[C@@H]1COC(=O)[C@@H]2CCCN2C(=O)[C@@H](C)COC(=O)CCC[C@H]1C
1.27

Dear colleague, I am looking for the recorded composite z-score of the following compound: C=CC[C@@H]1C=C[C@H](ON=C(C)CCN2CCCc3nc(C)c(C)cc32)[C@@H](CO)O1
1.32

Dear colleague, I am looking for the recorded composite z-score of the following compound: COC(=O)CC=C[C@@H](C)[C@@H](C=NOC(C)CN1CCCCc2nc(C)c(C)cc21)OC (stereo not given in full)
1.28

Dear colleague, I am looking for the recorded composite z-score of the following compound: CCOC(=O)[C@H](CC(C)C)NC(=O)CCC1CC(OC(=O)NCc2ccc3c(c2)OCO3)CC2(CCCC(COC(=O)NCc3ccccc3)O2)O1 (stereo not given in full)
1.19

###

- MEASURED_TARGET: Concanavalin-A (Canavalia ensiformis) (UniProt P02866)
- Sequence (P02866 whole entry, looked up): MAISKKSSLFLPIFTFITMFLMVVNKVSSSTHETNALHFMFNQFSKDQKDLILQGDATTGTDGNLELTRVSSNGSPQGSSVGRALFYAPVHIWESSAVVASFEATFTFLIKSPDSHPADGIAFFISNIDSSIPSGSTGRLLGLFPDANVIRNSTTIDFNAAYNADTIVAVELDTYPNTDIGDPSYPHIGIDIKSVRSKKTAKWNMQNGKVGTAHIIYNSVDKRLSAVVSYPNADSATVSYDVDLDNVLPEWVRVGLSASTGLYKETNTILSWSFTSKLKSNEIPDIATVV
- ASSAY_PROTOCOL: ConA small-molecule binders, primary screen, artefact control for SMM control protein annotation, biochemical, small-molecule microarray, Alexa647 label, 635 nm (AID 1127);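 further: z combines 667 nm emission intensity with signal-to-noise across three replicate slides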
- ASSAY_CONTEXT: ConA-A647 binding fluorescence, higher = more signal
// composite z-score lookup, one value per entry
Lab note: jot the number down without any unit.

>>> value("CCOC(=O)[C@H](Cc1ccccc1)NC(=O)CCC1CC(OC(=O)NCCc2ccc(F)cc2)CC2(CCCC(COC(=O)NCCC(C)C)O2)O1 (some centres not stated)")
0.831
>>> value("O=C1C=C[C@@H](O)[C@@H]2[C@@H]3C(=O)N(C4CCCCC4)C(=O)[C@@H]3CC[C@@H]12")
0.273
>>> value("C[C@@H]1CC[C@@H](C(=O)O)N[C@H]1c1cccc(N2CCOCC2)c1")
0.305
>>> value("CCOC(=O)[C@H](Cc1ccccc1)NC(=O)CCC1CC(OC(=O)NCCc2ccc(F)cc2)CC2(CCCC(COC(=O)NCCOc3ccccc3)O2)O1 (some centres not stated)")
0.909
>>> value("COc1ccc(COC(=O)NN=C2C[C@@H](O)[C@@H](O)[C@@H]3[C@@H]4C(=O)N(C5CCCCC5)C(=O)[C@@H]4CC[C@@H]23)cc1")
-0.35

Query the reported composite z-score for Concanavalin-A (Canavalia ensiformis) (UniProt P02866); item: C=CC[C@@H]1C=C[C@H](Oc2ccc(C)cc2)[C@@H](COC(=O)NCc2cccc3ccccc23)O1
-0.749

Query the reported composite z-score for Concanavalin-A (Canavalia ensiformis) (UniProt P02866); item: CC(C)CON=C1C[C@@H](O)[C@@H](O)[C@@H]2[C@@H]3C(=O)N(c4ccc(F)cc4F)C(=O)[C@@H]3CC[C@@H]12
0.72

###

- System: wheat germ agglutinin (Triticum aestivum), Alexa647-labelled
- ASSAY_PROTOCOL: wheat germ agglutinin binders on compound microarrays, profiling panel, artefact control for SMM control-protein annotation, biochemical, small-molecule microarray, 635/667 nm fluorescence (AID 1140);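 further: score merges 667 nm feature emission with signal to noise over triplicate slides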
- ASSAY_CONTEXT: WGA-A647 binding, 635 nm fluorescence, higher = more signal
true (1) means recorded composite z-score is -0.05 or above; false (0) means it is below -0.05.

Recorded results for 8 compounds are shown here.
>>> label_value("O=C1CCCC=C1C(O)COCc1ccccc1 (centres undefined)")
"true (1)"
>>> label_value("COC(=O)C(C(=O)OC)C1CCCC(=O)C1 (centres undefined)")
"true (1)"
>>> label_value("CC(CCN1CCCCc2nc(C)c(C)cc21)=NOC[C@@H](O)[C@H]1O[C@@H]2OC(C)(C)O[C@@H]2[C@H]1O")
"false (0)"
>>> label_value("COC(=O)CC=C[C@@H](C)[C@@H](C=NOC[C@@H](O)COCc1ccco1)NS(=O)(=O)c1ccc(C)cc1")
"false (0)"
>>> label_value("O=C1[C@H]2CCn3c(=O)n(Cc4cc5c(cc4Cl)OCO5)c(=O)n3[C@H]2[C@H](O)[C@@H]2O[C@H]12")
"true (1)"
>>> label_value("CC(CCN1CCCCc2nc(C)c(C)cc21)=NO[C@@H](C)c1cc(-c2c(C)cc(C)cc2C)no1")
"false (0)"
>>> label_value("COc1ccc(O[C@H]2C=C[C@@H](c3ccccc3)O[C@@H]2COC(=O)CCC(C)=NOC[C@@H](O)COCc2ccco2)cc1")
"false (0)"
>>> label_value("CC(CCN1CCCCc2nc(C)c(C)cc21)=NO[C@H](C)c1cn([C@@H]2COC[C@H]2O)nn1")
"false (0)"

hey, is composite z-score for this one >= -0.05? CC(CCN1CCCc2nc(C)c(C)cc21)=NO[C@@H](C)c1cn([C@H](CO)Cc2ccccc2)nn1
true (1)
